From: ChEMBL document CHEMBL3797202

Assay: Terminal half life in CD1 mouse at 1 mg/kg, iv as bolus dose by LC-MS/MS analysis
Type: ADME, organism-based
Details: in vivo, read-out: beta t1/2 (converted)
OBSERVED_PROPERTY: half-life

# input Tell me its half-life given `O=C1Cc2cc(C(=O)N[C@H]3C[C@H]4CC[C@@H](C3)N4S(=O)(=O)CC3CCN(CCCC(F)(F)F)CC3)c(Cl)cc2N1` as the entry.
# output 1.7 h

----------
Test: AUC (0 to last) in CD1 mouse at 5 mg/kg, administered through oral gavage measured up to 24 hrs by LC-MS/MS analysis
Type: ADME, organism-based
Design: dose 5 mg/kg, route oral, time 0 - last
Conditions: in vivo
OBSERVED_PROPERTY: AUC(0-t) at 24 h

# input Let me know recorded AUC(0-t) at 24 h for `O=C1Cc2cc(C(=O)N[C@H]3C[C@H]4CC[C@@H](C3)N4S(=O)(=O)CC3CCN(CCCC(F)(F)F)CC3)c(Cl)cc2N1` , thanks.
# output 1.28 µg·h/mL
